experiment: Animal PK studies, subcutaneous bioavailability across species; assay type: in vivo; details: rat, dog, monkey, baboon, plasma, sc; administered subcutaneously in a solution; rats, dogs, monkeys, and baboons
property: bioavailability

Item under review: `N=C(N)c1ccc2nc(-c3cc(CC(=O)N[C@@H](CC(=O)O)C(=O)O)cc(-c4cc(S(N)(=O)=O)ccc4O)c3O)[nH]c2c1` . Reported bioavailability? 95 to 124%

###

experiment: Animal PK studies, subcutaneous, rat; conditions: in vivo, sc, subcutaneous administration, read-out: terminal half-life (t1/2) (converted)
property: half-life (h)
One number for each entry, in h.

Item under review: `N=C(N)c1ccc2nc(-c3cc(CC(=O)N[C@@H](CC(=O)O)C(=O)O)cc(-c4cc(S(N)(=O)=O)ccc4O)c3O)[nH]c2c1` . Reported half-life? 2.67
